Origin of values: patent US20190216831A1

# Test system: EHV-1
# Assay overview: cells
# Test settings: Equus caballus, 144 h, read-out: IC50 for EHV-1 by cell viability
Property name: pIC50
When answering, recall that pIC50 equals minus log10 of the concentration in mol/L, and write that number alone.

Data request: What measured pIC50 goes with CC(C)(C)C(=O)OCOP(=O)(COCCn1cnc2c(N)ncnc21)OCOC(=O)C(C)(C)C [adefovir dipivoxil] ?
Data returned: 6.91

Data request: Entry CC(C)OC(=O)OCOP(=O)(CO[C@H](C)Cn1cnc2c(N)ncnc21)OCOC(=O)OC(C)C.O=C(O)/C=C/C(=O)O [tenofovir disoproxil fumarate] : reported pIC50 = ?
Data returned: 4.86

----------
# System: EHV-1
# Assay overview: EHV-1 viral particles in supernatant of MacF macrophage-like cells by qPCR
# Format: cell-based, Equine herpesvirus 1
# Test settings: Equus caballus, 72 h, day 3 post infection, average of two independent experiments
Property name: pIC50
By convention, pIC50 is the negative base-10 log of a molar concentration.

Data request: Could you share which pIC50 value was measured for CC(C)OC(=O)OCOP(=O)(CO[C@H](C)Cn1cnc2c(N)ncnc21)OCOC(=O)OC(C)C.O=C(O)/C=C/C(=O)O [tenofovir disoproxil fumarate] ?
Data returned: 5.95

----------
# Assay overview: in vitro
# Test settings: horse (equine)
Property name: CC50 at 3 days (µM)
I only need the number, in µM, no unit after it.

Data request: Field request: CC50 at 3 days | item: CC(C)OC(=O)OCOP(=O)(CO[C@H](C)Cn1cnc2c(N)ncnc21)OCOC(=O)OC(C)C.O=C(O)/C=C/C(=O)O [tenofovir disoproxil fumarate]
Data returned: 117
